- Tested on: Phomopsis obscurans
- Test method notes: Antifungal activity against Phomopsis obscurans assessed as growth inhibition at 30 uM after 144 hr by 96-well microdilution broth assay
- Assay type: functional
- Condition: Paraphomopsis obscurans, read-out: GI
Result type: inhibition of growth at 30 µM

Molecule	Result value
COc1ccc(/C=N\NC(=O)CCC2CCCCC2)cc1	74.1%
O=C1C2CC=CCC2C(=O)N1SC(Cl)(Cl)Cl (stereo not given)	100%
Cc1ccc(/C=N\NC(=O)CCC2CCCCC2)cc1	86.7%
CC(C)c1ccc(/C=N\NC(=O)CCC2CCCCC2)cc1	99.5%
O=C(CCC1CCCCC1)N/N=C\c1ccc(F)cc1	86.9%

The measured values listed here are drawn from ChEMBL document CHEMBL3045460.
